What follows is a record of pIC50 for Acetylcholinesterase (Homo sapiens).
Give only the number. pIC50 is defined as minus log10 of concentration in molar units.

[[record]]
line_notation = "CN(CCCOc1ccc2c(=O)c3ccccc3oc2c1)Cc1cccc(OC(=O)NCCCCCCCCN2CCOCC2)c1"
metric = "pIC50"
measurement = 7.56

[[record]]
line_notation = "CNC(=O)Oc1cccc(CN(C)CCCCCCCCCOc2ccc3c(=O)c4ccccc4oc3c2)c1"
metric = "pIC50"
measurement = 7.93

[[record]]
line_notation = "CNC(=O)Oc1cccc(CN(C)CCCCCCCCCCOc2ccc3c(=O)c4ccccc4oc3c2)c1"
metric = "pIC50"
measurement = 7.66

[[record]]
line_notation = "CNC(=O)Oc1cccc(CN(C)CCCOc2ccccc2)c1"
metric = "pIC50"
measurement = 7.10

[[record]]
line_notation = "CNC(=O)Oc1cccc(CN(C)CCCOc2ccc(-c3ccccc3)cc2)c1"
metric = "pIC50"
measurement = 7.26


Entry CNC(=O)Oc1cccc(CN(C)CC#CCOc2ccc3c(=O)c4ccccc4oc3c2)c1 ; assay system Acetylcholinesterase (Homo sapiens); pIC50 recorded at 6.68

# CNC(=O)Oc1cccc(CN(C)CCCOc2ccc(C(=O)c3ccccc3)cc2)c1 with Acetylcholinesterase (Homo sapiens): pIC50 is 8.27

Bench note, Acetylcholinesterase (Homo sapiens): CNC(=O)Oc1cccc(CN(C)CCCCCCOc2ccc3c(=O)c4ccccc4oc3c2)c1 , pIC50 reads 8.85

Entry CN(CCCOc1ccc2c(=O)c3ccccc3oc2c1)Cc1cccc(OC(=O)NCCCCCCN2CCOCC2)c1 , Acetylcholinesterase (Homo sapiens) data, pIC50 value: 7.68

---

target: UniProt:P06276; assay: In vitro inhibition of human serum Butyrylcholinesterase.
Sequence (P06276 whole entry): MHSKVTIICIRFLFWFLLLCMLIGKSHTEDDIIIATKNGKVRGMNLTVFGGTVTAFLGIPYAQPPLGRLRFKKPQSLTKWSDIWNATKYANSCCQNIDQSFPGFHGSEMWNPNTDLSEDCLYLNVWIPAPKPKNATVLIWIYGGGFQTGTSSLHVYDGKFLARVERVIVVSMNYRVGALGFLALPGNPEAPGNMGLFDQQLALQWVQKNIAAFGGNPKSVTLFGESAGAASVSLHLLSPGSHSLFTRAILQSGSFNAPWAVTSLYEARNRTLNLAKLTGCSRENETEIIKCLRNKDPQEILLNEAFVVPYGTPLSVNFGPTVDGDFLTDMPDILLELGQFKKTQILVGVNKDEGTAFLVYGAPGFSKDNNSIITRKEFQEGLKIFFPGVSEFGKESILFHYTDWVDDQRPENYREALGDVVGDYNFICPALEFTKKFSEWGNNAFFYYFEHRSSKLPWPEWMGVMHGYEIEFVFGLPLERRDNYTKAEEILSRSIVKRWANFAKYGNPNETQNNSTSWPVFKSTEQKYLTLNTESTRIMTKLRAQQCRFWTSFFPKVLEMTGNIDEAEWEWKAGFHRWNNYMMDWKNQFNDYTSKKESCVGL
metric: pIC50
Worth noting: pIC50 values are minus log10 of concentrations stated in mol/L.

Reference set (10 entries):
[[record]]
line_notation = "CNC(=O)Oc1cccc(CN(C)CCCOc2ccc(-c3ccccc3)cc2)c1"
target_or_system = "UniProt:P06276"
metric = "pIC50"
measurement = 7.37

[[record]]
line_notation = "CN(CCCOc1ccc2c(=O)c3ccccc3oc2c1)Cc1cccc(OC(=O)NCCCCCCCN2CCOCC2)c1"
target_or_system = "UniProt:P06276"
metric = "pIC50"
measurement = 8.31

[[record]]
line_notation = "CNC(=O)Oc1cccc(CN(C)CCCOc2cccc(Cc3ccccc3)c2)c1"
target_or_system = "UniProt:P06276"
metric = "pIC50"
measurement = 7.66

[[record]]
line_notation = "CNC(=O)Oc1ccc2c(c1)CN(CCCOc1ccc3c(=O)c4ccccc4oc3c1)CC2"
target_or_system = "UniProt:P06276"
metric = "pIC50"
measurement = 7.47

[[record]]
line_notation = "CNC(=O)Oc1cccc(CN(C)CCCCCCCCOc2ccc3c(=O)c4ccccc4oc3c2)c1"
target_or_system = "UniProt:P06276"
metric = "pIC50"
measurement = 7.60

[[record]]
line_notation = "CNC(=O)Oc1cccc(CN(C)CCCOc2ccc(C(=O)c3ccccc3)cc2)c1"
target_or_system = "UniProt:P06276"
metric = "pIC50"
measurement = 7.61

[[record]]
line_notation = "CNC(=O)Oc1cccc(CN(C)CCCCCCOc2ccc3c(=O)c4ccccc4oc3c2)c1"
target_or_system = "UniProt:P06276"
metric = "pIC50"
measurement = 7.86

[[record]]
line_notation = "CNC(=O)Oc1cccc(CN(C)CCCOc2ccccc2)c1"
target_or_system = "UniProt:P06276"
metric = "pIC50"
measurement = 7.61

[[record]]
line_notation = "CNC(=O)Oc1cccc(CN(C)CCCCCCCCCCOc2ccc3c(=O)c4ccccc4oc3c2)c1"
target_or_system = "UniProt:P06276"
metric = "pIC50"
measurement = 7.50

[[record]]
line_notation = "CNC(=O)Oc1cccc(CN(C)CCCOc2ccc3ccccc3c2)c1"
target_or_system = "UniProt:P06276"
metric = "pIC50"
measurement = 6.69


Looking up CNC(=O)Oc1cccc(CN(C)CCCCCCCOc2ccc3c(=O)c4ccccc4oc3c2)c1 , I found its pIC50 recorded as 7.78

Value of measured pIC50 for the entry CNC(=O)Oc1cccc(CN(C)CC#CCOc2ccc3c(=O)c4ccccc4oc3c2)c1 : 6.28

The recorded pIC50 for CN(CCCOc1ccc2c(=O)c3ccccc3oc2c1)Cc1cccc(OC(=O)NCCCCCCCCN2CCOCC2)c1 is 8.41

Looking up CN(CCCOc1ccc2c(=O)c3ccccc3oc2c1)Cc1cccc(OC(=O)NCCCCCCN2CCOCC2)c1 , I see its pIC50 listed as 8.12

Sure, the documented pIC50 for CNC(=O)Oc1cccc(CN(C)CCCCCCCCCOc2ccc3c(=O)c4ccccc4oc3c2)c1 is 7.32

---

Here the recorded pIC50 is given for each entry.
target: Acetylcholinesterase (Homo sapiens)
Sequence (P22303 whole entry): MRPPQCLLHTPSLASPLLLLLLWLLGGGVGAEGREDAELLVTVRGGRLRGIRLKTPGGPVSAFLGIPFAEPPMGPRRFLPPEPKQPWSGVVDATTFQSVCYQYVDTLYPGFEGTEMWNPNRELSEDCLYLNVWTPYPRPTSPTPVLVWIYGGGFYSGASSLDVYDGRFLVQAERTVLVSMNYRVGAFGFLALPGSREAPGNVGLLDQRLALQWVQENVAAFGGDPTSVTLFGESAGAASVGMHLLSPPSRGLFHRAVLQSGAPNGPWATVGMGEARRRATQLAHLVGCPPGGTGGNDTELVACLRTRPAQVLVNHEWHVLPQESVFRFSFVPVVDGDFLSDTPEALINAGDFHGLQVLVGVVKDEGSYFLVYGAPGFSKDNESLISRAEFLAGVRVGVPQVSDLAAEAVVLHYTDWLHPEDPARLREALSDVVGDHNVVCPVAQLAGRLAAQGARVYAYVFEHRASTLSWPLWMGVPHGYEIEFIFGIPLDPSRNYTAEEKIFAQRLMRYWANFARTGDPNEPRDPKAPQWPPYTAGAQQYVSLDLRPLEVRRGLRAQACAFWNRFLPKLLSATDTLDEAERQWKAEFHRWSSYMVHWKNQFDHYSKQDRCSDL
Value format note: pIC50 is -log10 of concentration (mol/L); just state the number.

[[record]]
line_notation = "CN(CCCOc1ccc2c(=O)c3ccccc3oc2c1)Cc1cccc(OC(=O)NCCCCCCCN2CCOCC2)c1"
measurement = 7.58

[[record]]
line_notation = "CN(CCCOc1ccc2c(=O)c3ccccc3oc2c1)Cc1cccc(OC(=O)NCCCCCCCCCN2CCOCC2)c1"
measurement = 7.53

[[record]]
line_notation = "CNC(=O)Oc1cccc(CN(C)CCCCCCCOc2ccc3c(=O)c4ccccc4oc3c2)c1"
measurement = 9.49

[[record]]
line_notation = "CNC(=O)Oc1cccc(CN(C)CCCCCCCCOc2ccc3c(=O)c4ccccc4oc3c2)c1"
measurement = 8.17

[[record]]
line_notation = "CNC(=O)Oc1ccc2c(c1)CN(CCCOc1ccc3c(=O)c4ccccc4oc3c1)CC2"
measurement = 7.91


Read the next record carefully.
response.value for CNC(=O)Oc1cccc(CN(C)CCCOc2ccc3ccccc3c2)c1 (field: pIC50) = 7.08

Where do these numbers come from? They come from ChEMBL document CHEMBL1134674.
